Listing of entries alongside the reported recombinant UMI read abundance (log10).
# assay-name: recombinant UMI read abundance after kanamycin selection (control-corrected) (log10(CPM+1)); higher = more efficient recombination; extreme values may be limits of the assay; sequences stand for … in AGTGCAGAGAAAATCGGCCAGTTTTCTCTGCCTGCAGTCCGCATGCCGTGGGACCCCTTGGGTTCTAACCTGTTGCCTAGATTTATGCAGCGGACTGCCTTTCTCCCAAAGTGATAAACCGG…AGGTTGGTTTCACT; site = the 11-nt donor;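 further: IS621 bridge recombinase in Escherichia coli cells against a fixed T5 target plasmid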
measurement-type: recombinant UMI read abundance (log10)

seq_string="GTAGTTCCATGGACCGGTTTTCCCGGTAATCCGTATTTGGT (site GTTGTTCCTAC)" measurement_type="recombinant UMI read abundance (log10)" meas_value=0.00774
seq_string="TGTGTATCATGGACCGGTTTTCCCGGTAATCCGTATTTGAT (site TGTGTATCTAT)" measurement_type="recombinant UMI read abundance (log10)" meas_value=0.398
seq_string="GAAGTGGCATGGACCGGTTTTCCCGGTAATCCGTATTTGGT (site GCAGTGGCTAC)" measurement_type="recombinant UMI read abundance (log10)" meas_value=0.177
seq_string="TCAGAGGCATGGACCGGTTTTCCCGGTAATCCGTATTTGCG (site TCAGAGCCTCG)" measurement_type="recombinant UMI read abundance (log10)" meas_value=0.0967
seq_string="ACACATACATGGACCGGTTTTCCCGGTAATCCGTATTTGAC (site ACACATACTGT)" measurement_type="recombinant UMI read abundance (log10)" meas_value=2.71
